Values compiled from paper PMC11142274.

- TARGET_OR_SYSTEM: mouse CNPase catalytic domain (mouse, UniProt P16330)
- Sequence (P16330 179-398): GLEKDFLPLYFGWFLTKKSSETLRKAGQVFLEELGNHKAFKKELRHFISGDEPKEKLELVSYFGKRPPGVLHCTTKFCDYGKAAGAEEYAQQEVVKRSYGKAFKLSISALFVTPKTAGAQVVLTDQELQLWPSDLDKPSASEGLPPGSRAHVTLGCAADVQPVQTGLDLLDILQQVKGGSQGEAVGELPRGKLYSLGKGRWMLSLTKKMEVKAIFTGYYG
- PROTOCOL: ITC
RESULT_TYPE: Kd (nM)

MaBP-10E (His6-maltose binding protein fusion of NbCNP 10E) (VHH) VHH: EVQLEESGGGLVQPGGSLRLSCAVSGITLDDFGIGWFRQAPGKEREGVACISPGYEHIYYADSAKGRFTISRDNAKNTVYLQMNNLKPWDTGVYYCAADNDLPDRLWGGSDWSDPSPYDYWGQGTQVTVSS	13.4
anti-CNPase nanobody NbCNP 8C (VHH) VHH: EVQLEESGGGLVQAGGSLTLSCAASGFTFDDYAMGWYRQAPGKERVGVSCISRTDGYTYYLDSVKGRFTISTDHAKHTVYLQMNNLKPDDTGLYYCAADADPEYGSRCPDPYYGMDYWGKGILVTVSS	16.6

(I) anti-CNPase nanobody NbCNP 10E (VHH) VHH: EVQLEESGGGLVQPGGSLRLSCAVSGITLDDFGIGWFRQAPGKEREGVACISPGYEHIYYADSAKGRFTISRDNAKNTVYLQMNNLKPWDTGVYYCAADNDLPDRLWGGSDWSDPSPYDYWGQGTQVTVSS
(II) anti-CNPase nanobody NbCNP 7E (VHH) VHH: EVQLEESGGGWVHPGGSLRLSCAASGNVFGVNTMAWYRQAPGKQREQRELVASITDYGTTEYADSVKGRFTISGDNAKATVYLQMNSLKPEDTAVYYCNMDLTVMTATSSLYAYDYWGQGTQVTVSS
Data request: Hi there, can you help? I need to know whether I or II has lower measured Kd. Lab log: write the label of the selected item as the result.
Data returned: I
(I: 9.8 nM, II: 83.3 nM)
